Sourced from patent US12264155B2

Test system: ATR/ATRIP (Homo sapiens (Human), UniProt Q13535)
Sequence (Q13535 whole entry): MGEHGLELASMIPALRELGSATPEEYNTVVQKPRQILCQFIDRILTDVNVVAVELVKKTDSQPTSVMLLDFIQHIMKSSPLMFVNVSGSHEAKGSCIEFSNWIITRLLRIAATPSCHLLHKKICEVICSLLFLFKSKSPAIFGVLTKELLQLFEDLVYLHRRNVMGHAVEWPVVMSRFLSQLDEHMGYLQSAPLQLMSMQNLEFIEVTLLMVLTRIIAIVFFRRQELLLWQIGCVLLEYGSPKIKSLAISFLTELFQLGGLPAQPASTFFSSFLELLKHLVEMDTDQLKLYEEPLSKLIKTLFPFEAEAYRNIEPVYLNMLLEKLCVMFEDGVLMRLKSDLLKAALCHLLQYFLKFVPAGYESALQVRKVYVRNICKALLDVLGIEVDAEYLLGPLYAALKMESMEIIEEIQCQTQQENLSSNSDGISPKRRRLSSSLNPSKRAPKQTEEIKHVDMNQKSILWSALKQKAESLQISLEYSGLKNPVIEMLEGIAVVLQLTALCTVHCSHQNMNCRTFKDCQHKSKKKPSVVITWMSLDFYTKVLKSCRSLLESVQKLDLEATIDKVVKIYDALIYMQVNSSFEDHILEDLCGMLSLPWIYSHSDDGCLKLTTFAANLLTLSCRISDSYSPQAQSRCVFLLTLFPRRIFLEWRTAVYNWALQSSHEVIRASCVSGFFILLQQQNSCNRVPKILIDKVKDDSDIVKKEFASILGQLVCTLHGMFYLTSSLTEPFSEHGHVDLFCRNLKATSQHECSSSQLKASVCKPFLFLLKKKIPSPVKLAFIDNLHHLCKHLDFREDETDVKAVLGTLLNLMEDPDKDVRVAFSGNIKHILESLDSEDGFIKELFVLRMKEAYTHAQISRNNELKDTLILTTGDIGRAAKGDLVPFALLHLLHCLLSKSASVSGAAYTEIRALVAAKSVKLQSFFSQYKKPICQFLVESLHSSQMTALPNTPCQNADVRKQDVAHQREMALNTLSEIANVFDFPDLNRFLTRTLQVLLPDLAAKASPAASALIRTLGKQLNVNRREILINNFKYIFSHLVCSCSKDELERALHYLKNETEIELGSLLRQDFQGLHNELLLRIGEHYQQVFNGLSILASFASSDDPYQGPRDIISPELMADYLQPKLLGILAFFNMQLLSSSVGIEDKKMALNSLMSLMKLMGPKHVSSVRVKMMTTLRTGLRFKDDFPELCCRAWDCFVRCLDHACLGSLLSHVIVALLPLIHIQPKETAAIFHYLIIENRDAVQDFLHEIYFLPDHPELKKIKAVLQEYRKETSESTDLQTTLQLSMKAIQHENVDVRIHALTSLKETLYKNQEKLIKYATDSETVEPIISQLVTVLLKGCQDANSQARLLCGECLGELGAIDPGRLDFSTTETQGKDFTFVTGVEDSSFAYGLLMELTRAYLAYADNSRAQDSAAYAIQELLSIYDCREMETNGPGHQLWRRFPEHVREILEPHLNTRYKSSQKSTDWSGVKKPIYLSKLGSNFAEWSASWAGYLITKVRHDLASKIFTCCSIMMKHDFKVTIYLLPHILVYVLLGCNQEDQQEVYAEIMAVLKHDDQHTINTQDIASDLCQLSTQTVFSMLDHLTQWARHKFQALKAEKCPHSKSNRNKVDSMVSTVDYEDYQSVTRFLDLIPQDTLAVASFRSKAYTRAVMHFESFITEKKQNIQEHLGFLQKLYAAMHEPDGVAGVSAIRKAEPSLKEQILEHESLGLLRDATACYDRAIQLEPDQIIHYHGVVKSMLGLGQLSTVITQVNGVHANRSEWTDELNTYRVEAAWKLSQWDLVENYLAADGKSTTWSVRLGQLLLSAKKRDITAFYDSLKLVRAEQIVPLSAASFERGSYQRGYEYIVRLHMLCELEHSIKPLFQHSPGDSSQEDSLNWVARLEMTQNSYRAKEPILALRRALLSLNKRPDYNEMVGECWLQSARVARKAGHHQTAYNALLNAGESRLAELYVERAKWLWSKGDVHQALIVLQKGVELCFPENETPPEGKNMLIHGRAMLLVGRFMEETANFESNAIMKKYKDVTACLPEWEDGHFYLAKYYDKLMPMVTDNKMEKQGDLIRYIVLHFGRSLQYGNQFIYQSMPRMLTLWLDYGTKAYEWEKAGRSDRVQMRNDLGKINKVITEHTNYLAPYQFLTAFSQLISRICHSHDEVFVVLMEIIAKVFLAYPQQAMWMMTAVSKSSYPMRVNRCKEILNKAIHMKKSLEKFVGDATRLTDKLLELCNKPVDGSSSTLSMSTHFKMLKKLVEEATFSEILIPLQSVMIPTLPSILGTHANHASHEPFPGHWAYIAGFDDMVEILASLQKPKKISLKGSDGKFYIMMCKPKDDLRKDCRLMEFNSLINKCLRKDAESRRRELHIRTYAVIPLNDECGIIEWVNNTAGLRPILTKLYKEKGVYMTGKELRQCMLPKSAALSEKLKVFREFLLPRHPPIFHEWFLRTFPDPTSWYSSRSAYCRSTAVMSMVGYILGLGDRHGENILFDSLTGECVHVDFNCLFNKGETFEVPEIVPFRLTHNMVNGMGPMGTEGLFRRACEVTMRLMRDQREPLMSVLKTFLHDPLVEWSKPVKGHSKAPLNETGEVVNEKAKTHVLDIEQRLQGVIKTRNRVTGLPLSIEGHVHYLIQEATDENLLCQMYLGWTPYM
Sequence (Q8WXE1 whole entry partner): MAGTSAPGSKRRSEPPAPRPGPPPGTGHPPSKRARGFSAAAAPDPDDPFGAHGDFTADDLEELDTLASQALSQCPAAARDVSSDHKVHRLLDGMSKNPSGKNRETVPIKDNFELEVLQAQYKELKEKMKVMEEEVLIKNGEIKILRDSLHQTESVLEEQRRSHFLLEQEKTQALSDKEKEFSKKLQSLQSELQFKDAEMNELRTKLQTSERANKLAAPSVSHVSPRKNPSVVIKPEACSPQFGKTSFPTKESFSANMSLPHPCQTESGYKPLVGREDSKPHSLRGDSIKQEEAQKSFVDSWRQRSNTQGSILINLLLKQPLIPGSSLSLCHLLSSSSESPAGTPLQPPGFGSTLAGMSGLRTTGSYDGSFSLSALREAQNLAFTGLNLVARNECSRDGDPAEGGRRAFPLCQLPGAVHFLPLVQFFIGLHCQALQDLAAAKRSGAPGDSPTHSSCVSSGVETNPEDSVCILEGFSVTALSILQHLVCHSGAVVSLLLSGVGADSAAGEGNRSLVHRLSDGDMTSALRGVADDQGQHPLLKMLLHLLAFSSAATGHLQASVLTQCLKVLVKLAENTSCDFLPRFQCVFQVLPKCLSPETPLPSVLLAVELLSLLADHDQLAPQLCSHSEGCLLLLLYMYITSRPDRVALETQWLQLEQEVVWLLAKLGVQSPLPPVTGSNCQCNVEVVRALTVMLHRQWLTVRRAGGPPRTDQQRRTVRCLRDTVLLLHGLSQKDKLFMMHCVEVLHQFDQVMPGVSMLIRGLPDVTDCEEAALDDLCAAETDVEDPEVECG
Measurement notes: ATR/ATRIP enzymatic assay (AlphaScreen, phosphorylation of p53)
Condition info: read-out: ATR IC50; recombinant ATR/ATRIP 0.63 nM, 25 nM GST-p53, 3 μM ATP, 1 hour room temperature
Test readout: IC50 (nM)

Compound | Value unit | IC50
C[C@@H]1COCCN1c1cc(-c2ccccc2S(C)(=O)=O)c2ccn(-c3cc[nH]n3)c2n1 | nM | 425
Cc1ccncc1-c1cc(N2CCOC[C@H]2C)nc2c1ccn2-c1cc[nH]n1 | nM | 37
Cc1ccnc(-n2ncc3c(C(C)(C)O)cc(N4CCOC[C@H]4C)nc32)c1 | nM | 92

P: C[C@@H]1COCCN1c1cc(C2(C#N)CCN(C(=O)OC(C)(C)C)C2)c2cnn(-c3cc[nH]n3)c2n1 (some centres unmarked)
Q: CC(C)c1cc(N2CCOC[C@H]2C)nc2c1ccn2-c1cc[nH]n1
# min-compare on IC50 between P and Q Pick one; state its label.
P
(P: 6 nM, Q: 1420 nM)
